# assay.notes: Clearance in mouse
# Assay type: ADME, organism-based
# condition.summary: in vivo
experimental.endpoint: clearance (mL/min/kg)
Your answer should be a plain number; it is taken to be in mL/min/kg.

Query: I have this compound here, `CNC(=O)N(c1ccc(S(=O)(=O)Nc2ncccn2)cn1)c1cc(F)c(-c2ccc(F)c(OC(F)(F)F)c2)cc1OC` , and I need its recorded clearance.
Reply: 1.67

---

# assay.notes: AUC in dog at 2 mg/kg, po
# Format: ADME, organism-based, Canis lupus familiaris
# Design: dose 2 mg/kg, route po
# condition.summary: in vivo
experimental.endpoint: AUC

Query: I have this compound here, `CNC(=O)N(c1ccc(S(=O)(=O)Nc2ncccn2)cn1)c1cc(F)c(-c2ccc(F)c(OC(F)(F)F)c2)cc1OC` , and I need its recorded AUC.
Reply: 200 µM·h
